# Test system: JAK kinase (JAK1 and JAK3)
# experiment: IL-4 activation assay: CD23 upregulation in IL-4 stimulated Ramos B-cells, FACS
# Type: cell-based, human
# condition parameters: TABLE 1; IC50 CHMC degranulation / IC50 IL-4 Ramos CD23; minimum ratio, calculated using Syk IC50 of 50 μM (upper limit of assay)
Mark Condition met only when IC50 Ratio (Syk/JAK) stays strictly below 50. Values equal to the cut-off are Condition not met.

{"molecule": "COC(=O)c1ccc(Nc2ncc(F)c(Nc3ccc(OC)c(Cl)c3)n2)cc1 [Cmpd 25]", "assigned class": "Condition met"}
{"molecule": "COc1ccc(Nc2nc(Nc3cc(Cl)c(OC)c(Cl)c3)ncc2F)cc1Cl [Cmpd 21]", "assigned class": "Condition met"}
{"molecule": "COC(=O)c1cc(Nc2ncc(F)c(Nc3ccc4c(c3)OCCO4)n2)cc(-c2ncco2)c1 [Cmpd 5]", "assigned class": "Condition not met"}

Prompt line: State whether 50 exceeds IC50 Ratio (Syk/JAK) recorded for CN1CCN(c2ccc(Nc3ncc(F)c(NC4CC(C)(C)N(C)C(C)(C)C4)n3)cc2Cl)CC1 [Cmpd 1] .
Response line: Condition not met

Prompt line: Follow-up item: Cc1noc(COc2ccc(Nc3nc(Nc4cc(Cl)c(O)c(Cl)c4)ncc3F)cc2)n1 [Cmpd 4]
Response line: Condition not met

Prompt line: And for CC(C)Nc1nc(Nc2cccc(N3CCN(C)CC3)c2)ncc1F [Cmpd 11] ?
Response line: Condition met

Prompt line: Follow-up item: Cc1cc(Nc2ncc(F)c(NC3CCCC3C(N)=O)n2)ccc1N1CCN(C)CC1 (centres unmarked) [Cmpd 2]
Response line: Condition not met

* * *

# Tested on: JAK kinase (JAK1 and JAK3)
# experiment: IL-4 activation assay: CD23 upregulation in IL-4 stimulated Ramos B-cells, FACS
# Assay type: cell-based, human
# condition parameters: TABLE 1; IC50 CHMC degranulation / IC50 IL-4 Ramos CD23; minimum ratio, calculated using Syk IC50 of 50 μM (upper limit of assay)
Could you please mark yes for values of IC50 Ratio (Syk/JAK) below 20 and no for values at or above it?

{"smiles repr": "CCN1CCN(c2ccc(Nc3ncc(F)c(NC4CC(C)(C)N(C)C(C)(C)C4)n3)cn2)CC1", "assigned class": "yes"}
{"smiles repr": "CNC(=O)COc1cccc(Nc2ncc(F)c(Nc3ccc(OC)c(CN(C(=O)OC(C)(C)C)C(C)C)c3)n2)c1", "assigned class": "yes"}
{"smiles repr": "C[C@H]1Oc2ccc(Nc3nc(Nc4ccc(C(=O)NCC(=O)O)cc4)ncc3F)cc2NC1=O", "assigned class": "yes"}
{"smiles repr": "CCNC(=O)Nc1ccc(Nc2ncc(F)c(Nc3ccc(NC(=O)NCC)cc3)n2)cc1", "assigned class": "no"}
{"smiles repr": "COc1ccc(Nc2ccnc(Nc3ccc(OC)c(-c4ccccc4)c3)n2)cc1-c1ccccc1", "assigned class": "no"}
{"smiles repr": "Cc1ccc(Nc2ccnc(Nc3ccc(C)c([N+](=O)[O-])c3)n2)cc1[N+](=O)[O-]", "assigned class": "no"}
{"smiles repr": "CNC(=O)n1ccc2ccc(Nc3nc(Nc4cc(C)cc(C)c4)ncc3F)cc21", "assigned class": "no"}
{"smiles repr": "CC(=O)N(C)c1ccc(Nc2ncc(F)c(N3CCN(C)CC3)n2)cc1", "assigned class": "yes"}
{"smiles repr": "Cc1cc(Nc2ncc(F)c(N[C@@H]3CC=CC[C@H]3C(N)=O)n2)ccc1N1CCN(C)CC1", "assigned class": "no"}
{"smiles repr": "Fc1ccc(Nc2ncc(F)c(Nc3ccc4c(c3)OCCO4)n2)cc1Cl", "assigned class": "yes"}

Turning now to a further record.
Prompt line: Decide: IC50 Ratio (Syk/JAK) of Fc1cnc(Nc2ccc3c(c2)OCCO3)nc1NC1CCCCC1 strictly below 20?
Response line: yes

* * *

# Test system: JAK kinase (JAK1 and JAK3)
# experiment: IL-4 activation assay: CD23 upregulation in IL-4 stimulated Ramos B-cells, FACS
# Assay type: cell-based, human
# condition parameters: TABLE 1; IC50 CHMC degranulation / IC50 IL-4 Ramos CD23; minimum ratio, calculated using Syk IC50 of 50 μM (upper limit of assay)
experimental readout: IC50 Ratio (Syk/JAK)
Give bare numbers.

// each listed molecule needs a value for IC50 Ratio (Syk/JAK)
1. O=C(O)C1CCC(Nc2nc(Nc3ccc4c(c3)OCCO4)ncc2F)CC1 (centres unmarked)
2. NC(=O)c1ccc(Nc2ncc(F)c(NC3CCCC3)n2)cc1
3. CNC(=O)COc1cccc(Nc2ncc(F)c(Nc3ccc(OC)c(CN(C)C)c3)n2)c1
4. CCCCOc1ccc(Nc2nc(Nc3ccc4c(c3)OCCO4)ncc2F)cc1

Response line:
20
70
51
20

Respectfully, I request IC50 Ratio (Syk/JAK) for each entry included below.
1. Oc1cccc(Nc2ncc(F)c(Nc3cccc(-c4nnc(-c5ccccc5)o4)c3)n2)c1
2. Fc1cnc(Nc2ccc3c(c2)OCCO3)nc1Nn1cccc1

Response line:
1. 36
2. 22

For each listed entry, give its IC50 Ratio (Syk/JAK).
1. CCOC(=O)c1cnc(Nc2ccc3[nH]ncc3c2)nc1Nc1ccc2[nH]ncc2c1
2. CNC(=O)C1=Cc2cccc(Nc3ncc(F)c(Nc4cc(C)cc(C)c4)n3)c2C1

Response line:
[43, 26]
